- Tested on: adjuvant arthritis
- Assay Notes: chronic adjuvant arthritis test in rats (Table I)
- Type: in vivo, male Charles River Lewis rats
- Setup Conditions: oral 75 μMol/Kg
- Method: That the compounds of this invention are effective anti-arthritic agents can be seen from the results obtained when these compounds are administered to rats in accordance with the chronic adjuvant arthritis test system disclosed in Billingham and Davies "Handbook of Experimental Pharmacology" (editors J.R. Vane and S.H. Ferreira) Vol. 50/II, pg. 108-144, Springer-Verlag, Berlin, 1979). […]
Property Label: Body Weight Gain

>>> result("CCCCCCCCNc1ccccc1/C=C/C(C)=C/C=C/C(C)=C/C(=O)OCC")
"+24 g"

Please give Body Weight Gain, item by item, for the list that follows.
1. CCCCCCCCCOc1ccc(OC)cc1/C=C/C(C)=C/C=C/C(C)=C/C(=O)O
2. CCCCCCCCCOc1cccc(F)c1/C=C/C(C)=C/C=C/C(C)=C/C(=O)O
3. CCCCCCCCCOc1cccc(Cl)c1/C=C/C(C)=C/C=C/C(C)=C/C(=O)O

1: +27 g; 2: +46 g; 3: +35 g

Source of measurements: patent US4883614A
